The measurements presented in this section are drawn from patent US9561231B2.

STUDY SYSTEM: second (BD2: amino acids E352-E168) bromodomain of BRD4 (Homo sapiens, UniProt O60885)
Construct: protocol
MEASUREMENT NOTES: TR-FRET bromodomain binding assay, BRD4 BD2
ASSAY SETUP: TR-FRET assay protocol (A-G, compound concentration range); Ki calculated from IC50, probe Kd and probe concentration; read-out: TR-FRET Binding Ki: BRD4 (BDII_E352-M457)
pKi: −log10 of the molar value.
PROPERTY MEASURED: pKi

Example entries begin here.
Exercise: Provide the documented pKi with second (BD2: amino acids E352-E168) bromodomain of BRD4 (Homo sapiens, UniProt O60885) as the system for `Cn1cc(-c2cc(S(N)(=O)=O)ccc2Oc2ccccc2)ccc1=O`
Key: 7.03

Exercise: Provide the documented pKi with second (BD2: amino acids E352-E168) bromodomain of BRD4 (Homo sapiens, UniProt O60885) as the system for `Cn1nc(-c2cc(N)ccc2Oc2ccccc2)ccc1=O`
Key: 5.82

Exercise: Provide the documented pKi with second (BD2: amino acids E352-E168) bromodomain of BRD4 (Homo sapiens, UniProt O60885) as the system for `Cn1nc(-c2ccccc2Oc2ccccc2)c(-c2ccc(N3CCOCC3)cc2)cc1=O`
Key: 6.59

1. Cn1nc(-c2ccccc2Oc2ccccc2)c(-c2ccc(CCCO)cc2)cc1=O
2. Cn1nc(-c2ccccc2Oc2ccccc2)c(-c2cc[nH]c(=O)c2)cc1=O
3. CCS(=O)(=O)Nc1ccc(Oc2ccc(F)cc2F)c(-c2cn(C)c(=O)cc2OC)c1
4. CN1CCN(c2ccc(-c3cc(=O)n(C)nc3-c3ccccc3Oc3ccccc3)cc2)CC1
Exercise: Rank order required: pKi, descending. Submit the labels in the order that the ranking request calls for.
Key: 3, 4, 1, 2
(3: 8.81, 4: 7.60, 1: 6.83, 2: 6.11)
